FYI, the data here is from ChEMBL document CHEMBL1799998.

- Test system: Pseudomonas aeruginosa
- protocol notes: Antimicrobial activity against Pseudomonas aeruginosa after 24 hrs by disc diffusion method; also: test concentration or dose not given here
- Type: functional
inhibition zone (IZ) listing for selected compounds.
Provide only the numeric value, understood in mm.

Worked examples, 8 compounds total:
CC1=NC(=S)N(n2c(CCl)nc3ccccc3c2=O)C(=O)C1/N=N/c1cccc(C)c1O (stereo unspecified) ... 23.5
CC1=NC(=S)N(n2c(CCl)nc3ccccc3c2=O)C(=O)C1/N=N/c1ccc(O)c([N+](=O)[O-])c1 (stereo unspecified) ... 12
CC1=NC(=S)N(n2c(CCl)nc3ccccc3c2=O)C(=O)C1/N=N/c1ccc(C)cc1O (stereo unspecified) ... 22
CC1=NC(=S)N(n2c(CCl)nc3ccccc3c2=O)C(=O)C1/N=N/c1cccc(Cl)c1O (stereo unspecified) ... 21.5
CC1=NC(=S)N(n2c(CCl)nc3ccccc3c2=O)C(=O)C1/N=N/c1ccc(Cl)cc1O (stereo unspecified) ... 18.5
CC1=NC(=S)N(n2c(CCl)nc3ccccc3c2=O)C(=O)C1/N=N/c1ccccc1 (stereo unspecified) ... 7
CC1(C)S[C@@H]2[C@H](NC(=O)[C@H](N)c3ccccc3)C(=O)N2[C@H]1C(=O)O ... 20
COc1ccc(/N=N/C2C(=O)N(n3c(CCl)nc4ccccc4c3=O)C(=S)N=C2C)cc1O (stereo unspecified) ... 28

For record CC1=NC(=S)N(n2c(CCl)nc3ccccc3c2=O)C(=O)C1/N=N/c1ccc(O)c(O)c1 (stereo unspecified) the listed inhibition zone (IZ) is 16

Consider CC1=NC(=S)N(n2c(CCl)nc3ccccc3c2=O)C(=O)C1/N=N/c1ccc(O)cc1O (stereo unspecified) . Its measured inhibition zone (IZ) is 13.5

Reported inhibition zone (IZ) of CC1=NC(=S)N(n2c(CCl)nc3ccccc3c2=O)C(=O)C1/N=N/c1ccc(O)cc1 (stereo unspecified) : 10

---

- Tested on: Bacillus subtilis
- protocol notes: Antimicrobial activity against Bacillus subtilis after 24 hrs by disc diffusion method; also: test concentration or dose not given here
- Type: functional
readout: inhibition zone (IZ) (mm)
Output spec: scalar in mm, unitless text.

CC1(C)S[C@@H]2[C@H](NC(=O)[C@H](N)c3ccccc3)C(=O)N2[C@H]1C(=O)O [AMPICILLIN] ... 40
CC1=NC(=S)N(n2c(CCl)nc3ccccc3c2=O)C(=O)C1/N=N/c1cccc(C)c1O (stereo not given) ... 36.5
CC1=NC(=S)N(n2c(CCl)nc3ccccc3c2=O)C(=O)C1/N=N/c1ccccc1 (stereo not given) ... 16.2
CC1=NC(=S)N(n2c(CCl)nc3ccccc3c2=O)C(=O)C1/N=N/c1cccc(Cl)c1O (stereo not given) ... 31.5

Turning now to a further compound:
COc1ccc(/N=N/C2C(=O)N(n3c(CCl)nc4ccccc4c3=O)C(=S)N=C2C)cc1O (stereo not given) tested on Bacillus subtilis gave inhibition zone (IZ): 42.1
